Target system: FAD-linked sulfhydryl oxidase ALR (Homo sapiens) (UniProt P55789)
Sequence (P55789 whole entry, looked up): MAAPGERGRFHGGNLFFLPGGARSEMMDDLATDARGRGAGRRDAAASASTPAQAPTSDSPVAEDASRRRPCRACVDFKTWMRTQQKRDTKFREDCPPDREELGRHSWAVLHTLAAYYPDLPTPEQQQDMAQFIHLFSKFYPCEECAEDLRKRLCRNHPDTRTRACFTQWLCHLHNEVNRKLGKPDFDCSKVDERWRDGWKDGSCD
Protocol details: ALR-catalysed DTT oxidation blockers – biochemical, H2O2 detection, HRP-luminol luminescence, single point, primary screen (AID 485317)
Condition description: purified ALR, concentration not given here
Among all 290,000 compounds or so, about 11,000 (3.8%) were called active.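 The calls were made as follows: active = mean replicate inhibition above about 79%, with every replicate also reaching it (limit read from the data); inconclusive = only one of the two criteria met; inactive = mean below limit and not every replicate reaching it.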 Shown is part of a subset that was picked to be rich in actives.
One label from this list, please: y (active), n (inactive)

Would you please look over these solved cases?
molecule=C(=C\c1ccccc1)/CSc1nnc(-c2cccnc2)n1Cc1ccco1 label_value=y
molecule=N#C/C(=C\c1ccc(-c2cccc([N+](=O)[O-])c2)o1)C(=O)NCCN1CCOCC1 label_value=n
molecule=CC(C)c1ccc(NC(=O)NC2CCCCC2)cc1 label_value=n
molecule=CCc1ccc(NC(=O)CSc2nnc(-c3cnccn3)n2Cc2ccco2)cc1 label_value=n

Look up the recorded call for O=C(CSc1nnc(-c2cccnc2)n1Cc1ccco1)c1ccc(Cl)cc1 in this test.
n

Look up the recorded call for CN1C(=O)/C(=C\c2ccc(-c3ccccc3)o2)SC1=S in this test.
n

Look up the recorded call for O=C(NCc1ccccn1)Nc1ccc(Cl)cc1 in this test.
n

Look up the recorded call for CC(C)c1ccc(NC(=O)C2CCCN(S(=O)(=O)c3cccnc3)C2)cc1 (configuration not stated) in this test.
n

Look up the recorded call for CCOC(=O)Cc1csc(NC(=O)CSc2nnc(-c3cccnc3)n2Cc2ccco2)n1 in this test.
n
